target: L-lactate dehydrogenase (Plasmodium falciparum (isolate CDC / Honduras)) (UniProt Q27743); experiment: PfLDH activity inhibition – cell lysate, 3D7 strain, counter-screen for P. falciparum growth inhibition project (AID 2304);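 note: 0% = vehicle and 100% = reference inhibitor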; conditions: P. falciparum 3D7 crude extract, LDH APAD/NBT absorbance; at 2 µM; active compounds read high
Sequence (Q27743 whole entry, looked up): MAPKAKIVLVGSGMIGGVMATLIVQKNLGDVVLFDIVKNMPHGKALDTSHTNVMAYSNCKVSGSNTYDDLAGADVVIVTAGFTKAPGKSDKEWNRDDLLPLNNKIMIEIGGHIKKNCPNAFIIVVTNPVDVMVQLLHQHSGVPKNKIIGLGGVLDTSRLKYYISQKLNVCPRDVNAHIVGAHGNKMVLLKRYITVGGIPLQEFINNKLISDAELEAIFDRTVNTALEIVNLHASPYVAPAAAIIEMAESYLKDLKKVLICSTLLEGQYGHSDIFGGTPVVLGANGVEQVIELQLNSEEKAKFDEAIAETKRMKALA
MEASURED PARAMETER: inhibition (%)
Numeric answer only, unit % assumed.

Previously resolved entries follow.
COMPOUND: CCOC(=O)c1c(CN(CC)CC)n(-c2ccccc2)c2cc(Br)c(O)cc12
MEASUREMENT TARGET: L-lactate dehydrogenase (Plasmodium falciparum (isolate CDC / Honduras)) (UniProt Q27743)
inhibition / %: -5
//
COMPOUND: CN1CCN(c2cccc(NC(=O)c3ccc(-c4ccc(C#N)cc4)cc3)c2)CC1
MEASUREMENT TARGET: L-lactate dehydrogenase (Plasmodium falciparum (isolate CDC / Honduras)) (UniProt Q27743)
inhibition / %: 2
//
COMPOUND: O=C(NCc1cccc(C(F)(F)F)c1)c1ccc(-c2nc3cc(F)c(F)cc3[nH]2)cc1
MEASUREMENT TARGET: L-lactate dehydrogenase (Plasmodium falciparum (isolate CDC / Honduras)) (UniProt Q27743)
inhibition / %: 4
//
COMPOUND: NC(=O)c1cc2nc(Nc3ccc(F)cc3)nc(Nc3ccc(S(N)(=O)=O)cc3)c2[nH]1
MEASUREMENT TARGET: L-lactate dehydrogenase (Plasmodium falciparum (isolate CDC / Honduras)) (UniProt Q27743)
inhibition / %: 4

Moving on to the next molecule.
Problem: Entry CCCCNc1cc(C)nc(NCc2ccccc2)n1 : reported inhibition = ?
Result: 3
